- tested system: Cyclin-dependent kinase 6 (Homo sapiens, UniProt Q00534)
- Sequence (Q00534 whole entry): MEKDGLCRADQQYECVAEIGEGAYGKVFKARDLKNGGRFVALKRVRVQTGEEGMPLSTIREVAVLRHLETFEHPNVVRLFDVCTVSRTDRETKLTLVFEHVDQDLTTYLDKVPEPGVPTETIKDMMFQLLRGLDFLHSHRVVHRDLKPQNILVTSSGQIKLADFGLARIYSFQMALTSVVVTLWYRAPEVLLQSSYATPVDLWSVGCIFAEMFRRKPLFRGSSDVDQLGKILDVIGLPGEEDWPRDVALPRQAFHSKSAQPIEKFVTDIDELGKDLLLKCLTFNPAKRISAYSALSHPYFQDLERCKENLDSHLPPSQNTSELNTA

| compound structure | Ki |
| --- | --- |
| N#Cc1ncc2nc1OCCCCOc1cc(NCc3cncs3)c(Cl)cc1NC(=O)N2 | > 1550 nM |

----------
- tested system: Mitogen-activated protein kinase kinase kinase 9 (Homo sapiens)
- Sequence (P80192 whole entry): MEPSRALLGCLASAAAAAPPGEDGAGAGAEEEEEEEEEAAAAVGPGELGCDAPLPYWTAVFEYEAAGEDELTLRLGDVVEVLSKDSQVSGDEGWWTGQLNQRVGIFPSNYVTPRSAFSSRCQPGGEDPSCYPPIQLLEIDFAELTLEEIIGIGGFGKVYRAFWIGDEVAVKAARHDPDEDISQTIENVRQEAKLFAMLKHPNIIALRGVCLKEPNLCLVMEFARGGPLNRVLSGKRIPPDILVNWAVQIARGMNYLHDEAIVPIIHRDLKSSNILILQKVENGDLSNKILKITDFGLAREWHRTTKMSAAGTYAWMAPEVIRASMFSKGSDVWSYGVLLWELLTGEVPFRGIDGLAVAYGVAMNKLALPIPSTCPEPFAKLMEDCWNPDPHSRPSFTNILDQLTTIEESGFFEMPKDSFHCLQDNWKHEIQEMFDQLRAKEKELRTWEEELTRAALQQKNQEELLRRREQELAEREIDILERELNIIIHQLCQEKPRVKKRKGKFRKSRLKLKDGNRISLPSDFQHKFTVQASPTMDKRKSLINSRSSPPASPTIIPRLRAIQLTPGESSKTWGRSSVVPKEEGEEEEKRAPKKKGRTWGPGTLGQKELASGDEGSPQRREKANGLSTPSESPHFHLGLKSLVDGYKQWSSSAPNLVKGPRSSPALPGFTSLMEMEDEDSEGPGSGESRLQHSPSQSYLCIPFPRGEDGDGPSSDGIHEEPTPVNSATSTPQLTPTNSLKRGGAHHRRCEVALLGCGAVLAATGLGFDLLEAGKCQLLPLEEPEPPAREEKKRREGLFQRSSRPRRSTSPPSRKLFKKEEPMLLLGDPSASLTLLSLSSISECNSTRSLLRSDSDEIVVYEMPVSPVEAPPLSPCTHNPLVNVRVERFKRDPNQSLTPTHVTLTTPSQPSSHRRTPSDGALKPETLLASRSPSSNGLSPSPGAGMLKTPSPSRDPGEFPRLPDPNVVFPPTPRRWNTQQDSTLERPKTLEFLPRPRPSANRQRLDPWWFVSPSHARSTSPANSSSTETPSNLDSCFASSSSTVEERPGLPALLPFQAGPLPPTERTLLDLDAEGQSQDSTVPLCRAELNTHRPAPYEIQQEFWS
- experiment notes: Inhibition of MLK1
outcome measure: Ki

| compound structure | result value |
| --- | --- |
| N#Cc1ncc2nc1OCCCCOc1cc(NCc3cncs3)c(Cl)cc1NC(=O)N2 | > 1670 nM |

----------
- Test system: NCI-H1299
- experiment notes: Inhibition of doxorubicin-induced cell cycle arrest in H1299 cells at G2/M phase by FACS assay
- Type: functional, cell-based
- recorded conditions: Homo sapiens
Listed here are compounds together with their documented EC50.

| compound structure | EC50 |
| --- | --- |
| N#Cc1ncc2nc1OCCCCOc1cc(OCCCO)c(Cl)cc1NC(=O)N2 | 2.5 µM |
| N#Cc1ncc2nc1OC/C=C\COc1cc(NC(=O)c3ccncc3)c(Cl)cc1NC(=O)N2 | > 10 µM |
| N#Cc1ncc2nc1OC/C=C\COc1cc(OCCO)c(Cl)cc1NC(=O)N2 | 1.9 µM |
| N#Cc1ncc2nc1OC/C=C\COc1cc(NC(=O)OCCN3CCOCC3)c(Cl)cc1NC(=O)N2 | > 10 µM |
| N#Cc1ncc2nc1OC/C=C\COc1cc(OCCCN3CCOCC3)c(Cl)cc1NC(=O)N2 | > 10 µM |
| N#Cc1ncc2nc1OCCCCOc1cc(NC(=O)OCCN3CCOCC3)c(Cl)cc1NC(=O)N2 | > 10 µM |
| N#Cc1ncc2nc1OC/C=C\COc1cc(N)c(Cl)cc1NC(=O)N2 | < 0.03 µM |
| N#Cc1ncc2nc1OCCCCOc1cc(OCCO)c(Cl)cc1NC(=O)N2 | 3.2 µM |
| N#Cc1ncc2nc1OC/C=C\COc1cc(OC(=O)N3CCC(N4CCCCC4)CC3)c(Cl)cc1NC(=O)N2 | > 10 µM |

Value source: ChEMBL document CHEMBL1140564
